Listed below: Activity (relative rate of hydrolysis) values for each entry.
Tested Target: HvExoI W286F/W434F mutant (Hordeum vulgare, UniProt Q9XEI3, W311F/W459F)
Sequence (Q9XEI3 26-630 W311F/W459F): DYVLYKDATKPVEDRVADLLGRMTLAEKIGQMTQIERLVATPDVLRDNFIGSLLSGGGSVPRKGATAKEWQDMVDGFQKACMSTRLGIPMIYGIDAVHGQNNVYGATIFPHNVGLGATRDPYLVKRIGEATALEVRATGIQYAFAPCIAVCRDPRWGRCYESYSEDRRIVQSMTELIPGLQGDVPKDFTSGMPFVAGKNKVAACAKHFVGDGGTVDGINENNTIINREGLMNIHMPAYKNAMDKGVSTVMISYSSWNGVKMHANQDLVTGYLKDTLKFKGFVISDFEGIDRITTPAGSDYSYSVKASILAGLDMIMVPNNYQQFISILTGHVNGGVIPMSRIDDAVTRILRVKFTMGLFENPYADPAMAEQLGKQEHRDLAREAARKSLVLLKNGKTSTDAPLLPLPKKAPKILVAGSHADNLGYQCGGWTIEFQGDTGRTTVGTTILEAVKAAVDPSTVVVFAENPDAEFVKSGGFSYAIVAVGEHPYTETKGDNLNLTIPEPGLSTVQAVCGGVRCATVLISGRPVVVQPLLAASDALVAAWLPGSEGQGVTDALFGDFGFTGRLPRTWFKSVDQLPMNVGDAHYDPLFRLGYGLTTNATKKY
Protocol Details: Relative rates of hydrolysis of poly-, oligosaccharides and aryl-glycosides
Assay type: biochemical
Condition Parameters: substance is the substrate, nd = activity not detected
Give the quantity in μmole/min per mg protein, number only.

Example entries begin here.
{"Compound": "OC[C@H]1O[C@@H](O[C@H]2[C@H](O)[C@@H](CO)OC(O)[C@@H]2O)[C@H](O)[C@@H](O)[C@@H]1O (stereo partly shown)", "Reported Value": 0.5}
{"Compound": "OC[C@H]1O[C@@H](O[C@H]2[C@H](O)[C@@H](O)[C@H](O[C@H]3[C@H](O)[C@@H](O)[C@H](O[C@H]4[C@H](O)[C@@H](O)[C@H](O[C@H]5[C@H](O)[C@@H](O)[C@H](O[C@H]6[C@H](O)[C@@H](O)C(O)O[C@@H]6CO)O[C@@H]5CO)O[C@@H]4CO)O[C@@H]3CO)O[C@@H]2CO)[C@H](O)[C@@H](O)[C@@H]1O (stereo partly shown)", "Reported Value": 0.01}
{"Compound": "O=[N+]([O-])c1ccc(O[C@@H]2O[C@H](CO)[C@@H](O)[C@H](O)[C@H]2O)cc1 [4NP-Glc, 4-nitrophenyl β-D-glucopyranoside]", "Reported Value": 0.5}

Please examine the following record next.
Check the records and state Activity (relative rate of hydrolysis) for OC[C@H]1O[C@@H](O[C@@H]2[C@@H](O)[C@H](O[C@@H]3[C@@H](O)[C@H](O[C@@H]4[C@@H](O)[C@H](O[C@@H]5[C@@H](O)[C@H](O[C@H]6[C@H](O)[C@@H](CO)OC(O)[C@@H]6O)O[C@H](CO)[C@H]5O)O[C@H](CO)[C@H]4O)O[C@H](CO)[C@H]3O)O[C@H](CO)[C@H]2O)[C@H](O)[C@@H](O)[C@@H]1O (stereo partly shown)
0.5

Source listed as paper PMC9508125.
